Test system: BT-549 breast
Assay: NCI-60 one-dose screen, 48 h (100 = growth as untreated, 0 = no growth, -100 = all killed)
Settings: 10 µM unless noted
The panel holds about 83,000 compounds, 20% with a hit somewhere; the sample as a whole holds those more often.
Note to self: growth under 50% means true, ties and anything higher get false.

Recorded results for 5 compounds are shown here.
{"columns": ["COMPOUND", "ANSWER_LABEL"],
 "data": [
  ["CN(/C(N)=N/N=C/c1c2ccccc2cc2ccccc12)C1CCCCC1", "false"],
  ["OCCn1cc(-c2nc(-c3c[nH]c4ncccc34)cs2)c2cc(F)ccc21", "false"],
  ["Cn1cc(C(=O)c2nc(-c3c[nH]c4ccccc34)no2)c2cc(F)ccc21", "true"],
  ["Nc1cnc(C(=O)NNc2nc3cc(F)ccc3n3cccc23)cn1", "false"],
  ["CN(C)c1ccc(C(=O)OCCCCCCl)cc1", "false"]
]}

Determine if NC(Cc1ccc(O)c([N+](=O)[O-])c1)C(=O)O (stereo not given) shows growth strictly lower than 50%.
false

Strictly below 50% in growth? `Cc1cc(=O)oc2cc(OCc3nn4c(Nc5nc6ccccc6s5)c(-c5ccccc5)nc4s3)ccc12`
false

Problem: For the compound `O=C1c2ccccc2-c2c1c1c(=O)[nH]c3ccccc3c1n2Cc1ccccc1` , is growth under 50%?
true

Is it true that growth reported for `COc1ccc(F)cc1/C=C/C(=O)/C=C(/C=C/c1cc(F)ccc1OC)OB(F)F` is less than 50%?
true

# strict comparison: is reported growth < 50%? input = `NC(=O)c1ccc(-c2c3ccccc3cc3c2ccc2ccccc23)cc1`
true

These entries and their values trace back to PubChem BioAssay (NCI).
